Test system: Human papillomavirus type 1a protein E7 (residues 44-93)
Experimental protocol: HPV1a E7 fragment binders on microarrays, primary screen, biochemical, small-molecule microarray, residues 44-93, 635 nm fluorescence (AID 1108);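 also: E7 fragment applied at 1 µg/mL in TBST for 1 h at 4 C; score combines spot fluorescence with its signal to noise ratio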
Study conditions: small-molecule microarray binding, fluorescence 635 nm; higher = more signal
Recorded composite z-score, one value per entry.
Measured metric: composite z-score

| Molecule | Tested system | Endpoint value |
| --- | --- | --- |
| CN1C(=O)C2C=CC(C(O)c3cccc(O)c3)N(Nc3ccccc3)C2C1=O (configuration not stated) | Human papillomavirus type 1a protein E7 (residues 44-93) | -0.286 |
| Cc1ccccc1C(O)C1C=CC2C(=O)N(C)C(=O)C2N1N(c1ccccc1)c1ccccc1 (configuration not stated) | Human papillomavirus type 1a protein E7 (residues 44-93) | -1.19 |
| CO[C@H]1O[C@H](CO)[C@@H](OC(=O)Nc2ccccc2-c2ccccc2)[C@H](OC(=O)Nc2ccc3c(c2)OCO3)[C@H]1OC(=O)Nc1ccc2c(c1)OCO2 | Human papillomavirus type 1a protein E7 (residues 44-93) | 1.29 |
| CN(C)C(=O)[C@]1(CCS(=O)(=O)c2ccccc2)N=C(c2ccc(OCCCO)cc2)O[C@@H]1c1ccccc1N=[N+]=[N-] | Human papillomavirus type 1a protein E7 (residues 44-93) | 1.5 |
| O=C1C2C=CC(C(O)c3ccccc3)N(Nc3ccccc3F)C2C(=O)N1c1ccccc1 (configuration not stated) | Human papillomavirus type 1a protein E7 (residues 44-93) | 0.188 |
| C=CCNC(=O)[C@H]1[C@@H]2C(=O)O[C@@H](c3ccccc3)[C@@H](c3ccccc3)N2[C@@H](c2ccc(O)cc2)[C@]12C(=O)N(C(=O)OCCOC)c1ccccc12 | Human papillomavirus type 1a protein E7 (residues 44-93) | 1.42 |
| COc1ccc([Si](C)(C)[C@@H]2[C@@H](CCO)O[C@]3(C(=O)N(Cc4ccc(N5CCCCC5=O)cc4)c4ccccc43)[C@H]2C)cc1 | Human papillomavirus type 1a protein E7 (residues 44-93) | -0.0334 |

====

// reported z-score for each item listed
Experimental protocol: E. coli acrAB mutant growth effects, primary screen, E. coli filamentation inducers, strain DRC39, OD650, 24 h (AID 1178);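 also: growth measured as culture turbidity by optical density at 650 nm; test concentration not given here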
Study conditions: higher = more signal, called active from +8 up or from −8 down
Measured metric: z-score

| Compound | Endpoint value |
| --- | --- |
| O=C(CS)NCCCCCNC(=O)[C@@H]1C[C@@H]2C(=O)N3CCC[C@H]3C(=O)N2[C@@H]1c1cccc(OCCO)c1 | -0.277 |
| CCOC(=O)C[C@H]1[C@H](OC(=O)c2ccccc2-c2ccccc2)[C@@H](NC(=O)c2ccc(-c3ccccc3)cc2)c2cc(OCCCO)ccc2N1C(=O)c1ccc2ccccc2n1 | -0.447 |
| O=C1NC(=O)C2C1C=CC(C(O)c1ccco1)N2Nc1ccccn1 (centres undefined) | -0.457 |
| CC=CC(O)C1C=CC2C(=O)N(c3ccccc3)C(=O)C2N1Nc1ccccc1F (centres undefined) | -0.382 |

====

Experimental protocol: FRG1 promoter luciferase signal modulators, primary screen, FRG1 inhibition for FSHD, cell-based, C2C12 myotubes, firefly/Renilla luciferase, luminescence (AID 1084)
Study conditions: higher = more signal, called active from +8 up or from −8 down
Label N if z-score falls below -0.2; label Y in every other case.

| Compound | Label value |
| --- | --- |
| [N-]=[N+]=NCc1ccccc1[C@@H]1OC(c2ccc(OCCCO)cc2)=N[C@]1(CCS(=O)(=O)c1ccccc1)C(=O)NCC(O)CO (stereo partly drawn) | N |
| CN(C)c1ccc(C(O)C2C=CC3C(=O)N(c4ccccc4)C(=O)C3N2Nc2ccc([N+](=O)[O-])cc2)cc1 (stereo not drawn) | Y |
| O=C1NC(=O)C2C1C=CC(C(O)CCc1ccccc1)N2Nc1ccc(Cl)cc1Cl (stereo not drawn) | Y |
| CC(C)(C)OC(=O)CC[C@]1(C(=O)NCc2ccccc2)N=C(c2ccc(OCCCO)cc2)O[C@H]1c1ccccc1CN=[N+]=[N-] | N |
| COC(=O)c1c(CC[C@@H](CO)NC(=O)N[C@H](Cn2cc(C3(O)CCCCC3)nn2)C(C)C)oc(C(C)=O)c1C(=O)OC | Y |
| COC(=O)c1c(CC[C@@H](CO)NC(=O)N2CCC[C@H]2Cn2cc(Cc3ccccc3)nn2)oc(C(C)=O)c1C(=O)OC | Y |
| CC(C)C(CO)N1C(=O)[C@@H]2C3C(=O)OCCC/C=C\[C@H]3OC23C=CCN(C(C)(C)C)C(=O)[C@@H]13 (stereo partly drawn) | N |
| COc1ccc([Si](C)(C)[C@H]2[C@H](CC(=O)N(CCO)Cc3ccccc3)O[C@@]3(C(=O)N(Cc4cccc(N5CCOC5=O)c4)c4ccccc43)[C@@H]2C)cc1 | N |
| C=CCNC(=O)[C@H]1[C@@H]2C(=O)O[C@@H](c3ccccc3)[C@@H](c3ccccc3)N2[C@@H](c2ccc(O)cc2)[C@]12C(=O)Nc1ccc(C#CC3(O)CCCCCC3)cc12 | N |
| NC(=O)NCC#Cc1ccc2c(c1)[C@]1(C(=O)N2)[C@H](C(=O)NC[C@H](O)c2ccccc2)[C@H]2C(=O)O[C@H](c3ccccc3)[C@H](c3ccccc3)N2[C@@H]1c1ccc(OCCO)cc1 | Y |
| O=C1OCC=C[C@H]2OC34C=CCN(Cc5ccccc5)C(=O)[C@H]3N(CCCCCCO)C(=O)[C@@H]4[C@@H]12 (stereo partly drawn) | N |
| COC(=O)[C@@]1(Cc2ccc(OC)cc2)[C@H]2c3cc(C(=O)N4CCCC4)n(Cc4c(-c5ccccc5)noc4C)c3C[C@H]2CN1C(=O)c1ccccc1 | Y |
| CCOC(=O)C[C@H]1[C@H](OC(=O)c2ccc(C(=O)c3ccccc3)cc2)[C@@H](NC(=O)Cc2ccc(OC)cc2)c2cc(OCCCO)ccc2N1C(=O)c1ccccc1 | N |
